Listing of recorded pIC50 by entry.
tested_system: recombinant human UAE (Homo sapiens (Human), UniProt P22314)
Sequence (P22314 whole entry): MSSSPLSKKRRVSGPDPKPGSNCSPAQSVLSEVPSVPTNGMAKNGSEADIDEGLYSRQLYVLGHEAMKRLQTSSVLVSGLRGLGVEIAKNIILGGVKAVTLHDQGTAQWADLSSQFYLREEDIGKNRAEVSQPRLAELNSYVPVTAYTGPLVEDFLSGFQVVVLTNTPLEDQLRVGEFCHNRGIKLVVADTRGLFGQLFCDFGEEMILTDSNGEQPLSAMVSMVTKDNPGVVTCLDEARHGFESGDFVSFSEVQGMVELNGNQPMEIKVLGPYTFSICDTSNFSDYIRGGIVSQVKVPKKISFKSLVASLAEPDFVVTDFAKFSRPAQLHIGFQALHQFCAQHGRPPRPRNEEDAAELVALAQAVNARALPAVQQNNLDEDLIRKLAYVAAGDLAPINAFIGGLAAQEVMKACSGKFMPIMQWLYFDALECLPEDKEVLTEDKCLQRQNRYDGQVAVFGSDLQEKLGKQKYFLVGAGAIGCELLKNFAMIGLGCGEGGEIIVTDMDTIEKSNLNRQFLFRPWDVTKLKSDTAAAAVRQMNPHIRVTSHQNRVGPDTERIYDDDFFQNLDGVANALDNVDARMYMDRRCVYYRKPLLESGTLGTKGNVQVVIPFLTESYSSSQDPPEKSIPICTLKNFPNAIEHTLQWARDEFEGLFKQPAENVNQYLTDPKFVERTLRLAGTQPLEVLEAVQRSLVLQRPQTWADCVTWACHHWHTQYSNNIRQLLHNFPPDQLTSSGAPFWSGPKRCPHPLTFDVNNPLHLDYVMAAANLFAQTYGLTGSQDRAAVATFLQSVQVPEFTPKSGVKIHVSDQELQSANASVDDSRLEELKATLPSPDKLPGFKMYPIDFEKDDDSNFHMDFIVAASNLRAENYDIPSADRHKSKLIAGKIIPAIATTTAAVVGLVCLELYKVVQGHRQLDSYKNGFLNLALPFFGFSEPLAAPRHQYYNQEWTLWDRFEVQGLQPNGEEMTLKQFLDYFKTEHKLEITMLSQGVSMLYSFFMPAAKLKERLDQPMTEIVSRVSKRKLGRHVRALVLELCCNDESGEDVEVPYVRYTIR
assay_overview: Ubiquitin Activating Enzyme (UAE) HTRF assay, human UAE
pIC50: −log10 of the molar value.

- compound: "NS(=O)(=O)OC[C@H]1C[C@@H](Nc2ccnc3cc(-c4cccc5sccc45)nn23)[C@H](O)[C@@H]1O (racemic) [Compound I-061]"
  pIC50: "> 8.00"
- compound: "NS(=O)(=O)OC[C@H]1C[C@@H](Nc2ccnc3cc(-c4csc5ccc(Cl)cc45)nn23)[C@H](O)[C@@H]1O (racemic) [Compound I-071]"
  pIC50: "> 8.00"
- compound: "CCc1ccc2sc(-c3cc4nccc(N[C@@H]5C[C@H](COS(N)(=O)=O)[C@@H](O)[C@H]5O)n4n3)cc2c1 (racemic) [Compound I-095]"
  pIC50: "7.00 to 8.00"
- compound: "NS(=O)(=O)OC[C@H]1C[C@@H](Nc2ccnc3cc(-c4cccc(N5CCCC5=O)c4)nn23)[C@H](O)[C@@H]1O (racemic) [Compound I-087]"
  pIC50: "> 8.00"
- compound: "NS(=O)(=O)OC[C@H]1C[C@@H](Nc2c(Cl)cnc3cc(-c4cccc(SC(F)(F)F)c4)nn23)[C@H](O)[C@@H]1O [Compound I-125]"
  pIC50: "6.00 to 7.00"
- compound: "COc1cc(F)ccc1-c1cc2nccc(N[C@@H]3C[C@H](COS(N)(=O)=O)[C@@H](O)[C@H]3O)n2n1 (racemic) [Compound I-070]"
  pIC50: "> 8.00"
- compound: "NS(=O)(=O)OC[C@H]1C[C@@H](Nc2c(Cl)cnc3c(Cl)c(-c4cccc(SC(F)(F)F)c4)nn23)[C@H](O)[C@@H]1O [Compound I-124]"
  pIC50: "6.00 to 7.00"
- compound: "COc1ccc(C(F)(F)F)cc1-c1cc2nccc(N[C@@H]3C[C@H](COS(N)(=O)=O)[C@@H](O)[C@H]3O)n2n1 (racemic) [Compound I-065]"
  pIC50: "> 8.00"
- compound: "NS(=O)(=O)OC[C@H]1C[C@@H](Nc2ccnc3cc(-c4cnc5ccccc5c4)nn23)[C@H](O)[C@@H]1O (racemic) [Compound I-025]"
  pIC50: "7.00 to 8.00"
- compound: "CC(C)(C)c1cccc(-c2cc3nccc(N[C@@H]4C[C@H](COS(N)(=O)=O)[C@@H](O)[C@H]4O)n3n2)n1 (racemic) [Compound I-052]"
  pIC50: "> 8.00"

Prompt line: Provide the reported pIC50 (system: recombinant human UAE (Homo sapiens (Human), UniProt P22314)) for CCCOC(C)(C)c1cccc(-c2cc3nccc(N[C@@H]4C[C@H](COS(N)(=O)=O)[C@@H](O)[C@H]4O)n3n2)c1 (racemic) [Compound I-090]
Response line: > 8.00

Prompt line: Provide the reported pIC50 (system: recombinant human UAE (Homo sapiens (Human), UniProt P22314)) for NS(=O)(=O)OC[C@H]1C[C@@H](Nc2ccnc3cc(-c4ccc5c(c4)[nH]c4ccccc45)nn23)[C@H](O)[C@@H]1O (racemic) [Compound I-062]
Response line: > 8.00

Prompt line: Provide the reported pIC50 (system: recombinant human UAE (Homo sapiens (Human), UniProt P22314)) for NS(=O)(=O)OC[C@H]1C[C@@H](Nc2ccnc3cc(-c4coc5ccccc45)nn23)[C@H](O)[C@@H]1O (racemic) [Compound I-049]
Response line: > 8.00

Prompt line: Provide the reported pIC50 (system: recombinant human UAE (Homo sapiens (Human), UniProt P22314)) for NS(=O)(=O)OC[C@H]1C[C@@H](Nc2cc(Cl)nc3cc(-c4cccc5ccccc45)nn23)[C@H](O)[C@@H]1O (racemic) [Compound I-009]
Response line: 6.00 to 7.00

Prompt line: Provide the reported pIC50 (system: recombinant human UAE (Homo sapiens (Human), UniProt P22314)) for NS(=O)(=O)OC[C@H]1C[C@@H](Nc2ccnc3cc(-c4ccnc(C(F)(F)F)c4)nn23)[C@H](O)[C@@H]1O (racemic) [Compound I-059]
Response line: 7.00 to 8.00

Prompt line: Provide the reported pIC50 (system: recombinant human UAE (Homo sapiens (Human), UniProt P22314)) for NS(=O)(=O)OC[C@H]1C[C@@H](Nc2ccnc3cc(-c4cc5ccc(Cl)cc5s4)nn23)[C@H](O)[C@@H]1O (racemic) [Compound I-088]
Response line: 7.00 to 8.00

###

Listing of recorded IC50 by entry.
tested_system: recombinant human UAE (Homo sapiens (Human))
assay_overview: Ubiquitin Activating Enzyme (UAE) HTRF assay, human UAE

Examples with answers:
- compound: "NS(=O)(=O)OC[C@H]1C[C@@H](Nc2ccnc3cc(-c4cccc5ccsc45)nn23)[C@H](O)[C@@H]1O (racemic)"
  IC50: "< 10 nM"
- compound: "CC(CO)(CCl)c1cccc(-c2cc3nccc(N[C@@H]4C[C@H](COS(N)(=O)=O)[C@@H](O)[C@H]4O)n3n2)c1 (relative stereo)"
  IC50: "< 10 nM"

Prompt line: Give a short answer stating reported IC50 for NS(=O)(=O)OC[C@H]1C[C@@H](Nc2ccnc3cc(-c4csc5ccccc45)nn23)[C@H](O)[C@@H]1O (racemic) .
Response line: < 10 nM

###

Listing of recorded pIC50 by entry.
tested_system: recombinant human UAE (Homo sapiens (Human), UniProt P22314)
assay_overview: Ubiquitin Activating Enzyme (UAE) HTRF assay, human UAE
pIC50: −log10 of the molar value.

Examples with answers:
- compound: "NS(=O)(=O)OC[C@H]1C[C@@H](Nc2ccnc3cc(-c4cccc(C(=O)c5ccccc5)c4)nn23)[C@H](O)[C@@H]1O (racemic)"
  pIC50: "7.00 to 8.00"
- compound: "NS(=O)(=O)OC[C@H]1C[C@@H](Nc2ccnc3cc(-c4ccc(SC(F)(F)F)cc4)nn23)[C@H](O)[C@@H]1O (racemic)"
  pIC50: "7.00 to 8.00"
- compound: "NS(=O)(=O)OC[C@H]1C[C@@H](Nc2ccnc3cc(-c4cc5ccccc5[nH]4)nn23)[C@H](O)[C@@H]1O (racemic)"
  pIC50: "> 8.00"

Prompt line: Give a short answer stating reported pIC50 for NS(=O)(=O)OC[C@H]1C[C@@H](Nc2ccnc3cc(-c4c(Cl)cc(Cl)c5ccccc45)nn23)[C@H](O)[C@@H]1O .
Response line: 7.00 to 8.00

Prompt line: Give a short answer stating reported pIC50 for COc1ccccc1-c1cc2nccc(N[C@@H]3C[C@H](COS(N)(=O)=O)[C@@H](O)[C@H]3O)n2n1 (racemic) .
Response line: > 8.00

###

tested_system: recombinant human UAE (Homo sapiens (Human), UniProt P22314)
assay_overview: Ubiquitin Activating Enzyme (UAE) HTRF assay, human UAE
Listing of recorded IC50 by entry.

Examples with answers:
- compound: "NS(=O)(=O)OC[C@H]1C[C@@H](Nc2ccnc3cc(-c4cccc(C(F)(F)F)c4)nn23)[C@H](O)[C@@H]1O (racemic)"
  tested_system: "recombinant human UAE (Homo sapiens (Human), UniProt P22314)"
  IC50: "< 10 nM"
- compound: "NS(=O)(=O)OC[C@H]1C[C@@H](Nc2ccnc3cc(-c4ccc5c(c4)C(=O)c4ccccc4-5)nn23)[C@H](O)[C@@H]1O (racemic)"
  tested_system: "recombinant human UAE (Homo sapiens (Human), UniProt P22314)"
  IC50: "< 10 nM"
- compound: "CCOC(C)(C)c1cccc(-c2cc3nccc(N[C@@H]4C[C@H](COS(N)(=O)=O)[C@@H](O)[C@H]4O)n3n2)c1 (racemic)"
  tested_system: "recombinant human UAE (Homo sapiens (Human), UniProt P22314)"
  IC50: "< 10 nM"
- compound: "NS(=O)(=O)OC[C@H]1C[C@@H](Nc2ccnc3cc(-c4c[nH]c5ccccc45)nn23)[C@H](O)[C@@H]1O (racemic)"
  tested_system: "recombinant human UAE (Homo sapiens (Human), UniProt P22314)"
  IC50: "< 10 nM"
- compound: "NS(=O)(=O)OC[C@H]1C[C@@H](Nc2ccnc3cc(-c4ccc5c(c4)oc4ccccc45)nn23)[C@H](O)[C@@H]1O (racemic)"
  tested_system: "recombinant human UAE (Homo sapiens (Human), UniProt P22314)"
  IC50: "< 10 nM"

Now examine the next entry.
Prompt line: Give a short answer stating reported IC50 for NS(=O)(=O)OC[C@H]1C[C@@H](Nc2ccnc3cc(-c4cccc(-c5ccccc5)c4)nn23)[C@H](O)[C@@H]1O (racemic) .
Response line: < 10 nM

###

tested_system: recombinant human UAE (Homo sapiens (Human))
assay_overview: Ubiquitin Activating Enzyme (UAE) HTRF assay, human UAE
pIC50: −log10 of the molar value.
Listing of recorded pIC50 by entry.

Examples with answers:
- molecule: "CC(C)(c1cccc(-c2cc3nccc(N[C@@H]4C[C@H](COS(N)(=O)=O)[C@@H](O)[C@H]4O)n3n2)c1)C(F)(F)F (racemic) [Compound I-058]"
  test_result: "> 8.00"
- molecule: "Cc1cc(N[C@@H]2C[C@H](COS(N)(=O)=O)[C@@H](O)[C@H]2O)n2nc(-c3ccccc3)cc2n1 (relative stereo) [Compound I-004]"
  test_result: "6.00 to 7.00"
- molecule: "COc1ccc(-c2cc3nc(Cl)cc(N[C@@H]4C[C@H](COS(N)(=O)=O)[C@@H](O)[C@H]4O)n3n2)cc1 (racemic) [Compound I-014]"
  test_result: "6.00 to 7.00"
- molecule: "COc1ccc(Cl)cc1-c1cc2nccc(N[C@@H]3C[C@H](COS(N)(=O)=O)[C@@H](O)[C@H]3O)n2n1 (racemic) [Compound I-020]"
  test_result: "> 8.00"
- molecule: "NS(=O)(=O)OC[C@H]1C[C@@H](Nc2ccnc3cc(-c4ccc(C(F)(F)F)c5cccnc45)nn23)[C@H](O)[C@@H]1O (racemic) [Compound I-033]"
  test_result: "> 8.00"

Prompt line: Provide the reported pIC50 (system: recombinant human UAE (Homo sapiens (Human))) for COC(=O)c1ccc2c(-c3cc4nccc(N[C@@H]5C[C@H](COS(N)(=O)=O)[C@@H](O)[C@H]5O)n4n3)cccc2c1 (relative stereo) [Compound I-096]
Response line: > 8.00
